protein stability index: recorded values
B1: CDC14A (parent)
chain: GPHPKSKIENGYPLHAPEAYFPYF

- Variants of: B1
- PROCEDURE_SUMMARY: protein stability index of a GFP-peptide fusion (GPS, HEK-293T) (PSI 1-6); higher = more stable;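 note: lentivirally expressed fusions sorted by FACS into six bins by GFP to DsRed ratio, PSI derived from sequencing read proportions per bin multiplied by bin number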
- PARTICULARS: c terminus: a fixed tail appended

>  <MUTATION_NAME>
E18W

>  <protein stability index>
1.56

$$$$
>  <MUTATION_NAME>
F24S

>  <protein stability index>
2.38

$$$$
>  <MUTATION_NAME>
P2D

>  <protein stability index>
2.29

$$$$
>  <MUTATION_NAME>
F24A

>  <protein stability index>
3.43

$$$$
>  <MUTATION_NAME>
Y23D

>  <protein stability index>
3.92

$$$$
>  <MUTATION_NAME>
H15T

>  <protein stability index>
2.74

$$$$
>  <MUTATION_NAME>
S6V

>  <protein stability index>
2.16

$$$$
>  <MUTATION_NAME>
I8C

>  <protein stability index>
2.45

$$$$
>  <MUTATION_NAME>
Y23K

>  <protein stability index>
3.13

$$$$
>  <MUTATION_NAME>
F21W

>  <protein stability index>
2.71

$$$$
>  <MUTATION_NAME>
K7Y

>  <protein stability index>
1.84

$$$$
>  <MUTATION_NAME>
H3T

>  <protein stability index>
1.91

$$$$
>  <MUTATION_NAME>
I8D

>  <protein stability index>
3.34

$$$$
>  <MUTATION_NAME>
P2A

>  <protein stability index>
2.35

$$$$
>  <MUTATION_NAME>
L14A

>  <protein stability index>
2.46

$$$$
>  <MUTATION_NAME>
S6T

>  <protein stability index>
2.15

$$$$
>  <MUTATION_NAME>
G1S

>  <protein stability index>
1.99

$$$$
>  <MUTATION_NAME>
K7C

>  <protein stability index>
2.23

$$$$
>  <MUTATION_NAME>
P22K

>  <protein stability index>
2.67

$$$$
>  <MUTATION_NAME>
Y23I

>  <protein stability index>
2.4

$$$$
>  <MUTATION_NAME>
G1T

>  <protein stability index>
2.7

$$$$
>  <MUTATION_NAME>
Y12I

>  <protein stability index>
2.82

$$$$
>  <MUTATION_NAME>
F24M

>  <protein stability index>
2.23

$$$$
>  <MUTATION_NAME>
A19E

>  <protein stability index>
2.36

$$$$
>  <MUTATION_NAME>
Y23R

>  <protein stability index>
2.97

$$$$
>  <MUTATION_NAME>
P17H

>  <protein stability index>
1.84

$$$$
>  <MUTATION_NAME>
G1W

>  <protein stability index>
1.73

$$$$
>  <MUTATION_NAME>
P17K

>  <protein stability index>
3.2

$$$$
>  <MUTATION_NAME>
Y23G

>  <protein stability index>
3.21

$$$$
>  <MUTATION_NAME>
K7E

>  <protein stability index>
2.27

$$$$
>  <MUTATION_NAME>
F24Q

>  <protein stability index>
2.6

$$$$
>  <MUTATION_NAME>
Y12H

>  <protein stability index>
2.99

$$$$
>  <MUTATION_NAME>
A16Q

>  <protein stability index>
2.49

$$$$
>  <MUTATION_NAME>
G11Y

>  <protein stability index>
2.12

$$$$
>  <MUTATION_NAME>
P13V

>  <protein stability index>
2.05

$$$$
>  <MUTATION_NAME>
K7I

>  <protein stability index>
1.98

$$$$
>  <MUTATION_NAME>
S6L

>  <protein stability index>
2.22

$$$$
>  <MUTATION_NAME>
I8V

>  <protein stability index>
2.48

$$$$
>  <MUTATION_NAME>
G1E

>  <protein stability index>
2.44

$$$$
>  <MUTATION_NAME>
P17I

>  <protein stability index>
2.06

$$$$
>  <MUTATION_NAME>
L14N

>  <protein stability index>
2.81

$$$$
>  <MUTATION_NAME>
L14R

>  <protein stability index>
2.51

$$$$
>  <MUTATION_NAME>
I8S

>  <protein stability index>
2.29

$$$$
>  <MUTATION_NAME>
P4Y

>  <protein stability index>
1.89

$$$$
>  <MUTATION_NAME>
F24W

>  <protein stability index>
1.89

$$$$
>  <MUTATION_NAME>
H15R

>  <protein stability index>
2.29

$$$$
>  <MUTATION_NAME>
G11V

>  <protein stability index>
2.03

$$$$
>  <MUTATION_NAME>
G1N

>  <protein stability index>
2.56

$$$$
>  <MUTATION_NAME>
H3K

>  <protein stability index>
2.46

$$$$
>  <MUTATION_NAME>
S6Y

>  <protein stability index>
1.82

$$$$
>  <MUTATION_NAME>
N10E

>  <protein stability index>
2.29

$$$$
>  <MUTATION_NAME>
K7V

>  <protein stability index>
2.59

$$$$
>  <MUTATION_NAME>
K7N

>  <protein stability index>
2.57

$$$$
>  <MUTATION_NAME>
A16Y

>  <protein stability index>
2.29

$$$$
>  <MUTATION_NAME>
K5I

>  <protein stability index>
2.06

$$$$
>  <MUTATION_NAME>
H3R

>  <protein stability index>
2.19

$$$$
>  <MUTATION_NAME>
K5A

>  <protein stability index>
2.26

$$$$
>  <MUTATION_NAME>
Y23C

>  <protein stability index>
2.77

$$$$
>  <MUTATION_NAME>
H3G

>  <protein stability index>
2.54

$$$$
>  <MUTATION_NAME>
K7W

>  <protein stability index>
1.57

$$$$
>  <MUTATION_NAME>
H15E

>  <protein stability index>
2.79

$$$$
>  <MUTATION_NAME>
P22A

>  <protein stability index>
1.61

$$$$
>  <MUTATION_NAME>
P2E

>  <protein stability index>
2.09

$$$$
>  <MUTATION_NAME>
P17T

>  <protein stability index>
3.15

$$$$
>  <MUTATION_NAME>
K7D

>  <protein stability index>
2.13

$$$$
>  <MUTATION_NAME>
G11K

>  <protein stability index>
2.44

$$$$
>  <MUTATION_NAME>
F24E

>  <protein stability index>
3.61

$$$$
>  <MUTATION_NAME>
K5Q

>  <protein stability index>
2.77

$$$$
>  <MUTATION_NAME>
A16I

>  <protein stability index>
2.04

$$$$
>  <MUTATION_NAME>
A16F

>  <protein stability index>
1.82

$$$$
>  <MUTATION_NAME>
H3E

>  <protein stability index>
2.46

$$$$
>  <MUTATION_NAME>
K5C

>  <protein stability index>
2.23

$$$$
>  <MUTATION_NAME>
E18I

>  <protein stability index>
1.95

$$$$
>  <MUTATION_NAME>
A16N

>  <protein stability index>
2.25

$$$$
>  <MUTATION_NAME>
G1H

>  <protein stability index>
2.08

$$$$
>  <MUTATION_NAME>
P13N

>  <protein stability index>
2.68

$$$$
>  <MUTATION_NAME>
P4L

>  <protein stability index>
1.51

$$$$
>  <MUTATION_NAME>
L14S

>  <protein stability index>
2.79

$$$$
>  <MUTATION_NAME>
I8M

>  <protein stability index>
2.09

$$$$
>  <MUTATION_NAME>
P13L

>  <protein stability index>
1.95

$$$$
>  <MUTATION_NAME>
Y12K

>  <protein stability index>
2.69

$$$$
>  <MUTATION_NAME>
Y20G

>  <protein stability index>
3.25

$$$$
